Taken from patent US10941158B2.

# Tested on: Fusarium virguliforme (Fv)
# assay-remarks: Growth inhibition assay of fungal pathogens
# Assay type: cell-based
# measurement-context: 48 h, Table 4b, 48 hours, read-out: Concentration at 90% Inhibition Fv
value-type: IC90

Any idea what IC90 was measured for COc1ccc(F)cc1[C@H](Cn1c(=O)n(C(C)(C)C(N)=O)c(=O)c2c(C)c(-n3cccn3)sc21)OCCC#N ?
10 µg/mL

Then COc1ccc(F)cc1[C@H](Cn1c(=O)n(C(C)(C)C(=O)NC(C)C)c(=O)c2c(C)c(-n3cccn3)sc21)OCCO ?
2 µg/mL

Then COc1ccc(F)cc1[C@H](Cn1c(=O)n(C(C)(C)C(=O)N2CCCC2)c(=O)c2c(C)c(-n3cccn3)sc21)OC[C@H](C)O ?
10 µg/mL

----------
IC90 overview
# Tested on: Rhizoctonia solani (Rs)
# assay-remarks: Growth inhibition assay of fungal pathogens
# Assay type: cell-based
# measurement-context: 48 h, Table 4a, read-out: Concentration at 90% Inhibition Rs
Kindly provide the numeric value in mg/L only, without the unit symbol.

The following molecules have reported results that may help.
smiles-entry | IC90 [mg/L]
COc1ccc(F)cc1[C@H](Cn1c(=O)n(C(C)(C)C(=O)NC(C)C)c(=O)c2c(C)c(-n3cccn3)sc21)OCC(C)(C)O | 10
COc1ccc(F)cc1[C@H](Cn1c(=O)n(C(C)(C)C(=O)N2CCCC2)c(=O)c2c(C)c(-n3cccn3)sc21)OC(C)C | 0.4
COc1ccccc1[C@H](Cn1c(=O)n(C(C)(C)C(=O)N2CCCC2)c(=O)c2c(C)c(-n3cccn3)sc21)OC1CCOCC1 | 2
CCO[C@@H](Cn1c(=O)n(C(C)(C)C(=O)N2CCCC2)c(=O)c2c(C)c(-n3cccn3)sc21)c1cc(F)ccc1OC | 2

Please tell me: IC90 of COc1ccc(F)cc1[C@H](Cn1c(=O)n(C(C)(C)C(=O)N2CCCC2)c(=O)c2c(C)c(-n3cccn3)sc21)OC1CCC(=O)CC1 , system Rhizoctonia solani (Rs)?
2

----------
MIC overview
# Test system: C. albicans ATCC 90028
# assay-remarks: Anti-Fungal (Candida) Activity Assay, broth microtiter MIC
# Format: cell-based
# measurement-context: ATCC90028, 48 h, read-out: MIC C. albicans ATCC 90028

compound | system | MIC
COc1ccc(F)cc1[C@H](Cn1c(=O)n(C(C)(C)C(=O)N2CCCCC2)c(=O)c2c(C)c(-n3cccn3)sc21)OC(C)C [Compound I-2] | C. albicans ATCC 90028 | 0.25 to 1 µg/mL
CCO[C@@H](Cn1c(=O)n(C(C)(C)C(=O)NC(C)C)c(=O)c2c(C)c(-n3cccn3)sc21)c1cc(F)ccc1OC [Compound I-33] | C. albicans ATCC 90028 | > 4.1 µg/mL

Any idea what MIC was measured for COc1ccccc1[C@H](Cn1c(=O)n(C(C)(C)C(=O)N2CCCCC2)c(=O)c2c(C)c(-n3cccn3)sc21)OC1CCOCC1 [Compound I-13] ?
0.25 to 1 µg/mL

Then COc1ccccc1[C@H](Cn1c(=O)n(C(C)(C)C(=O)NC(C)C)c(=O)c2c(C)c(-n3cccn3)sc21)OC(C)C [Compound I-17] ?
0.25 to 1 µg/mL

Then COc1ccccc1[C@H](Cn1c(=O)n(C(C)(C)C(=O)N2CCCCC2)c(=O)c2c(C)c(-n3cccn3)sc21)OC(C)C [Compound I-19] ?
> 4.1 µg/mL

Then COc1ccc(F)cc1[C@@H](O)Cn1c(=O)n(C(C)(C)C(=O)NC(C)C)c(=O)c2c(C)c(-n3cccn3)sc21 [Compound I-86] ?
1.1 to 2 µg/mL

Then COc1ccccc1[C@H](Cn1c(=O)n(C(C)(C)C(=O)NC(C)C)c(=O)c2c(C)c(-n3cccn3)sc21)OCCC#N [Compound I-80] ?
> 4.1 µg/mL

Then COc1ccc(F)cc1[C@H](Cn1c(=O)n([C@H](C)C(=O)NC(C)C)c(=O)c2c(C)c(-n3cccn3)sc21)OC(C)C [Compound I-30] ?
0.25 to 1 µg/mL

Then COc1ccc(F)cc1[C@H](Cn1c(=O)n(C(C)(C)C(=O)NC(C)C)c(=O)c2c(C)c(-n3cccn3)sc21)OC1CCOCC1 [Compound I-6] ?
0.25 to 1 µg/mL

Then COCCO[C@@H](Cn1c(=O)n(C(C)(C)C(=O)NC2CCCCC2)c(=O)c2c(C)c(-n3cccn3)sc21)c1cc(F)ccc1OC [Compound I-46] ?
> 4.1 µg/mL
